Test system: B. cereus (ATCC 10876)
Experiment: microbe, parasite or virus in culture
Type: cell-based
Details: Bacillus cereus, ATCC10876; 16 h at 37 °C; read-out: MIC B. cereus
endpoint: MIC (µM)
Numbers only, in µM.

Examples with answers:
compound: CCCCCCCCCCCCO[C@@H]1C[C@H](O)[C@@H](O)[C@H](C)O1
unitsLabel: µM
MIC: 202

compound: CCCCCCCCCCCCS[C@H]1C[C@@H](O)[C@H](O)CO1
unitsLabel: µM
MIC: 50

Below is a list of compounds. For each, state its recorded MIC.
1. CCCCCCCCCCCCO[C@@H]1C[C@@H](O)[C@H](O)[C@@H](CO)O1
2. CCCCCCCCCCCCS[C@@H]1C[C@@H](O)[C@H](O)CO1
3. CCCCCCCCCCCCO[C@H]1C[C@H](O)[C@H](O)[C@H](C)O1
4. CCCCCCCCCCCC[C@H]1C[C@H](O)[C@@H](O)[C@H](C)O1
5. CCCCCCCCCCCC[C@@H]1C[C@@H](O)[C@H](O)[C@@H](C)O1
6. CCCCCCCCCCCCO[C@H]1O[C@H](CO)C[C@H](O)[C@H]1O
7. O=C(N[C@H](CO)[C@H](O)c1ccc([N+](=O)[O-])cc1)C(Cl)Cl [Chloramphenicol, reference compound]
8. CCCCCCCCCCCCO[C@@H]1C[C@@H](O)[C@H](O)CO1

Marked response:
1: 386; 2: 25; 3: 25; 4: 27; 5: 27; 6: 51; 7: 19; 8: 52

Below is a list of compounds. For each, state its recorded MIC.
1. CCCCCCCCCCCCO[C@H]1C[C@@H](O)[C@H](O)CO1
2. CCCCCCCCCCCCS[C@H]1C[C@H](O)[C@@H](O)[C@H](C)O1
3. CCCCCCCCCCCCO[C@H]1O[C@H](C)C[C@H](O)[C@H]1O
4. CCCCCCCCCCCC[C@@H]1C[C@@H](O)[C@H](O)CO1
5. CCCCCCCCCCCCO[C@@H]1C[C@@H](O)[C@H](O)[C@@H](C)O1
6. CCCCCCCCCCCCO[C@H]1O[C@H](C)[C@@H](O)[C@H](O)[C@@H]1O

Marked response:
1. 52
2. 48
3. 12.6
4. 28
5. 25
6. 48

# MIC of CCCCCCCCCCCC[C@@H]1C[C@@H](O)[C@H](O)[C@@H](CO)O1 = 51

Data provenance is paper PMC6242839.
